The reported measurements were obtained from patent US20210032312A1.

ASSAY_SYSTEM: T1, human CD8 alpha (CD8A) on primary human CD8+ T cells (human, UniProt P01732 22-235)
T1 construct: whole, on cells; also called hCD8A
T1 sequence (P01732 22-235): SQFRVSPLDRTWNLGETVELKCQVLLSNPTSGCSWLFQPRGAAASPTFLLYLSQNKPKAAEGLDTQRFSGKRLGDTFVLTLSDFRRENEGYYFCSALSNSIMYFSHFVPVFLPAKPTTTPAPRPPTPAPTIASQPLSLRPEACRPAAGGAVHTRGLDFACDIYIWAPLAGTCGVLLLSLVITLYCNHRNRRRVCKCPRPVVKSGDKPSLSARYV
ASSAY_NAME: flow cytometry, human CD8+ T cells
Output criterion met for Human T-cell Binding 2 uM (MFI) not less than 10000 MFI; output criterion not met otherwise.

Worked examples follow.
P283FR9P1366_H9 (designed binder, FN3 domain) LPAPKNLVVSRVTEDSARLSWTAPDAAFDSFEIAYPEWPVNGEAIVLTVPGSERSYDLTGLKPGTEYWVVIWGVKGGVNSYPLSAIFTT : criterion not met
P283FR9P1366_A1 (designed binder, FN3 domain) LPAPKNLVVSRVTEDSARLSWTAPDAAFDSFWITYPEWPVPGEAIVLTVPGSERSYDLTGLKPGTEYAVFIWGVKGGDASEPLSAIFTT : criterion not met
P283DR9P1364_E5 (designed binder, FN3 domain) LPAPKNLVVSRVTEDSARLSWTAPDAAFDSFWISYPEWPVPGEAIVLTVPGSERSYDLTGLKPGTEYWVIIQGVKGGKLSWPLSAIFTT : criterion met

*Q* Say whether P283HR7P1368_F6 (designed binder, FN3 domain) LPAPKNLVVSRVTEDSARLSWTAPDAAFDSFGIGYIEWVHRGEAISLHVPGSERSYDLTGLKPGTEYVVAIVGVKGGEPSTPLGAPFTT shows Human T-cell Binding 2 uM (MFI) of 10000 MFI or more.
*A* criterion met

*Q* Say whether P283GR7P1367_A11 (designed binder, FN3 domain) LPAPKNLVVSRVTEDSARLSWTAPDAAFDSFDIAYPEWPTDGEAIVLTVPGSERSYDLTGLKPGTEYFVIIYGVKGGSYSEPLSAIFTT shows Human T-cell Binding 2 uM (MFI) of 10000 MFI or more.
*A* criterion met

*Q* Say whether P283GR7P1367_C9 (designed binder, FN3 domain) LPAPKNLVVSRVTEDSARLSWTAPDAAFDSFLIGYPEWPLGGEAIVLTVPGSERSYDLTGLKPGTEYWVIIYGVKGGEYSDPLSAIFTT shows Human T-cell Binding 2 uM (MFI) of 10000 MFI or more.
*A* criterion met

*Q* Say whether P283ER9P1365_B6 (designed binder, FN3 domain) LPAPKNLVVSRVTEDSARLSWTAPDAAFDSFGIGYAEPVVTGEAISLSVPGSERSYDLTGLKPGTEYWVVIIGVKGGINSYPLGAIFTT shows Human T-cell Binding 2 uM (MFI) of 10000 MFI or more.
*A* criterion met
